System under test: UniProt:Q08345
Sequence (Q08345 whole entry, looked up): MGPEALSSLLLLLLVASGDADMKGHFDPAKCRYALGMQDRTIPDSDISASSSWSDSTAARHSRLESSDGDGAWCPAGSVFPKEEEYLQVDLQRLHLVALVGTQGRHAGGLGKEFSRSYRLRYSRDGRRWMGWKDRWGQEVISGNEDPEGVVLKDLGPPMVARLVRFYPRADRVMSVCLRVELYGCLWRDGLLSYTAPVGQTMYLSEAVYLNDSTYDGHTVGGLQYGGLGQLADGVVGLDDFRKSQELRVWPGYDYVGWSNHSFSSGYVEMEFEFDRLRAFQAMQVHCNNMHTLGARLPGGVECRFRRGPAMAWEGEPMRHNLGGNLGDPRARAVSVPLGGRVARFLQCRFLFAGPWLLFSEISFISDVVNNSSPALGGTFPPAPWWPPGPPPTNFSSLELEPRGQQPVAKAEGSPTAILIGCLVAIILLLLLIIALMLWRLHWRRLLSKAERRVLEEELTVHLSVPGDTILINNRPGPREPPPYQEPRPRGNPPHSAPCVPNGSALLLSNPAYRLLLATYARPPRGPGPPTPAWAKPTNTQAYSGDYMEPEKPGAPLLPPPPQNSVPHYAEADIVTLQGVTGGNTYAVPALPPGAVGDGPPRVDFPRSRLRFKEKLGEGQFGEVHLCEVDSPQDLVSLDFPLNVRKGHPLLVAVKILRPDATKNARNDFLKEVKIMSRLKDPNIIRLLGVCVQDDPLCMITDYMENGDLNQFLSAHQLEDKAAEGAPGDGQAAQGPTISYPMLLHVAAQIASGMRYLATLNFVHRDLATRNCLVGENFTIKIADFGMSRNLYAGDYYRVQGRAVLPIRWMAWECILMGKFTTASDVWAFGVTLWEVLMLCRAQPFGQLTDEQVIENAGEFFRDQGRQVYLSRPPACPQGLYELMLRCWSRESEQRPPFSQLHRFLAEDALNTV
Assay comment: KINOMEscan competition binding
Measurement conditions: compound 10.0 µM
Quantity: kinase still bound, per cent of control (%)
Return type: number; implicit unit %.

Some compounds with recorded kinase still bound, per cent of control:
{"Entry smiles": "Cn1cc(C2=C(c3ccc(Cl)cc3Cl)C(=O)NC2=O)c2ccccc21", "Uom": "%", "kinase still bound, per cent of control": 100}
{"Entry smiles": "COc1ccc(CNC(=O)Nc2ncc([N+](=O)[O-])s2)cc1", "Uom": "%", "kinase still bound, per cent of control": 100}
{"Entry smiles": "O=C1Nc2cc(Br)ccc2/C1=C1/Nc2ccccc2/C1=N\\O", "Uom": "%", "kinase still bound, per cent of control": 55}

# ---- query compound ----
Exercise: Name the recorded kinase still bound, per cent of control for Cc1cnc(-c2cnc(NCCNc3ccc(C#N)cn3)nc2-c2ccc(Cl)cc2Cl)[nH]1 .
Key: 100

----------
Each entry below carries its reported kinase still bound, per cent of control.
System under test: CAMK1G (human) (UniProt Q96NX5)
Sequence (Q96NX5 whole entry, looked up): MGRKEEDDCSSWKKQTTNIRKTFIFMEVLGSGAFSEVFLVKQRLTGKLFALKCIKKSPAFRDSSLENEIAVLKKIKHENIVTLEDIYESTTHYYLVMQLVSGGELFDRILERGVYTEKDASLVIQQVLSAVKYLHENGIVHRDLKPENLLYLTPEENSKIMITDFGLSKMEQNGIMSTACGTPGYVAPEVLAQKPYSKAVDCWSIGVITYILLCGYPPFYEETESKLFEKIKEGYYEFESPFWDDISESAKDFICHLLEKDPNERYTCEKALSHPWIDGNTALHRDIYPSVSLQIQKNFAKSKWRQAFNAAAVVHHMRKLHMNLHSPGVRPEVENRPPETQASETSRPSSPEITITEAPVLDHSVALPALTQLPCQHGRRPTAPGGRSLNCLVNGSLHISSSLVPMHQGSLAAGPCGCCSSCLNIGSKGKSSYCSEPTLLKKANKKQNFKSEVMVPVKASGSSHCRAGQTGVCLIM
Assay comment: KINOMEscan competition binding
Measurement conditions: compound 10.0 µM
Answer format: number, then unit.

Exercise: Request: kinase still bound, per cent of control, test system CAMK1G (human) (UniProt Q96NX5), entry Cc1cnc(-c2cnc(NCCNc3ccc(C#N)cn3)nc2-c2ccc(Cl)cc2Cl)[nH]1
Key: 100%

Exercise: Form field - read-out: kinase still bound, per cent of control; system: CAMK1G (human) (UniProt Q96NX5); submitted item: COc1ccc(CNC(=O)Nc2ncc([N+](=O)[O-])s2)cc1
Key: 100%

Exercise: I'm curious: which kinase still bound, per cent of control was measured for O=C1Nc2cc(Br)ccc2/C1=C1/Nc2ccccc2/C1=N\O tested on CAMK1G (human) (UniProt Q96NX5)?
Key: 42%

Exercise: Lab note: need kinase still bound, per cent of control with CAMK1G (human) (UniProt Q96NX5) for entry Cn1cc(C2=C(c3ccc(Cl)cc3Cl)C(=O)NC2=O)c2ccccc21 , please look it up.
Key: 70%

----------
System under test: FGFR3 (human) (UniProt P22607)
Sequence (P22607 whole entry, looked up): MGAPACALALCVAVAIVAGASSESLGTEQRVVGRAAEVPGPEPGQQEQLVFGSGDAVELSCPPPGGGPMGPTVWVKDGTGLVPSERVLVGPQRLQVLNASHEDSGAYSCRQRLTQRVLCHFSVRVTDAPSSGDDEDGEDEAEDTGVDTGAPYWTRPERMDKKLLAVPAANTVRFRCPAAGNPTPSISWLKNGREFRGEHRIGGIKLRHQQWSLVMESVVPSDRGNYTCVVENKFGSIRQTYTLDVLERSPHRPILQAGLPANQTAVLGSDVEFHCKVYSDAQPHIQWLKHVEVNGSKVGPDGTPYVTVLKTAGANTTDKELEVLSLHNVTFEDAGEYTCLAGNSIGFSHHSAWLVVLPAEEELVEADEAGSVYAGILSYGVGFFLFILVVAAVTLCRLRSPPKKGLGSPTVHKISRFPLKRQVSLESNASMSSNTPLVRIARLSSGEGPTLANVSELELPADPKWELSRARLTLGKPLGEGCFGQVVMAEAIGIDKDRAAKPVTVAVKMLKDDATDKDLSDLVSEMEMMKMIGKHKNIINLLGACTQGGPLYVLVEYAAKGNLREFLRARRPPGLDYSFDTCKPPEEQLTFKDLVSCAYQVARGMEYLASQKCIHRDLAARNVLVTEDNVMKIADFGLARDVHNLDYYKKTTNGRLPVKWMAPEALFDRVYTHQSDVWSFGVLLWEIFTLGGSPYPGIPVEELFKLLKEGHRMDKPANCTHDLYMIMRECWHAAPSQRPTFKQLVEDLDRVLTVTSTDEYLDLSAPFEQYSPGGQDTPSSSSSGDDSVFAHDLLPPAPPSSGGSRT
Assay comment: KINOMEscan competition binding
Measurement conditions: compound 10.0 µM
Reported kinase still bound, per cent of control values for the following compounds.
State the answer as a number, implicitly in %.

{"Entry smiles": "Cn1cc(C2=C(c3ccc(Cl)cc3Cl)C(=O)NC2=O)c2ccccc21", "Experimental result": 97}
{"Entry smiles": "Cc1cnc(-c2cnc(NCCNc3ccc(C#N)cn3)nc2-c2ccc(Cl)cc2Cl)[nH]1", "Experimental result": 100}
{"Entry smiles": "O=C1Nc2cc(Br)ccc2/C1=C1/Nc2ccccc2/C1=N\\O", "Experimental result": 12}

Kindly review the next compound as well.
Exercise: Look at this compound and give its reported kinase still bound, per cent of control. COc1ccc(CNC(=O)Nc2ncc([N+](=O)[O-])s2)cc1
Key: 100

----------
Form field: kinase still bound, per cent of control (one value per entry).
System under test: RPS6KA4 KD1 (human)
Assay comment: KINOMEscan competition binding
Measurement conditions: compound 10.0 µM
Give the number first and the unit second.

Some solved entries appear below for comparison.
{"Entry smiles": "COc1ccc(CNC(=O)Nc2ncc([N+](=O)[O-])s2)cc1", "kinase still bound, per cent of control": "98%"}
{"Entry smiles": "Cn1cc(C2=C(c3ccc(Cl)cc3Cl)C(=O)NC2=O)c2ccccc21", "kinase still bound, per cent of control": "100%"}
{"Entry smiles": "O=C1Nc2cc(Br)ccc2/C1=C1/Nc2ccccc2/C1=N\\O", "kinase still bound, per cent of control": "3.2%"}

Read the next record carefully.
Exercise: Please provide the recorded kinase still bound, per cent of control for Cc1cnc(-c2cnc(NCCNc3ccc(C#N)cn3)nc2-c2ccc(Cl)cc2Cl)[nH]1 , tested on RPS6KA4 KD1 (human).
Key: 64%
